Reference for the values: ChEMBL document CHEMBL3507680

experiment: Human HepG2 cell viability assay in 384 well format; assay type: toxicity, cell-based; parameters: dose 125 nL, time 70.5 hour; concentration not given beside the values; settings: HepG2 cells, read-out: Inhibition
Recorded endpoint: cytotoxicity at 70.5 h (%)
One number for each entry, in %.

Past entries and their recorded results:
{"Molecule": "CCc1cnc2c(c1NCc1cccc(OC)c1)c(=O)n(C)c(=O)n2C", "Uom": "%", "cytotoxicity at 70.5 h": 33.7}
{"Molecule": "CC1(C(=O)Nc2ccc(F)c(-n3cccc3)c2)CCOCC1", "Uom": "%", "cytotoxicity at 70.5 h": -6.66}
{"Molecule": "O=C1CC(c2ccncc2)C2(CCN(Cc3ccc(F)cc3)CC2)N1 (stereo unspecified)", "Uom": "%", "cytotoxicity at 70.5 h": -9.81}
{"Molecule": "CN(CC(=O)Nc1cc(-n2nnnc2C2CC2)ccc1F)C1CCC1", "Uom": "%", "cytotoxicity at 70.5 h": -8.29}

Answer for every listed entry: what is its cytotoxicity at 70.5 h? The entries follow.
1. CCn1cc(NS(=O)(=O)c2ccc(Br)s2)c(C(N)=O)n1
2. CN(C)C(=O)N1CCc2c(CNc3ncccn3)cncc2C1
3. CCc1nccn1CCC(=O)N1CCN(c2ccccc2C)CC1C (stereo unspecified)
4. CC(=O)N1CCCc2cc(Nc3nccn(C)c3=O)ccc21
5. COc1cccc(Cl)c1C(C(=O)O)N1CCC(O)(c2cccnc2)CC1 (stereo unspecified)
6. CC(C)N1CC[C@H](c2nnc(Cc3c[nH]c4ccccc34)o2)C1
7. COCCC(=O)Nc1ccnn1-c1ccccc1

21.8
-2.83
-10.2
-7.29
-3.34
-4.41
1.36

----------
assay: Human HepG2 cell viability assay in 384 well format; type: toxicity, cell-based; design: dose 125 nL, time 70.5 hour; concentration not given beside the values; settings: HepG2 cells, read-out: Inhibition
Recorded endpoint: cytotoxicity at 70.5 h (%)
Give bare numbers, in %.

Below: 5 compounds and their reported cytotoxicity at 70.5 h.
{"Compound": "CCOC(=O)N1CCN(C(=O)c2cc(-c3ccc(C)cc3)on2)CC1", "cytotoxicity at 70.5 h [%]": 5.24}
{"Compound": "O=C(CCn1ccc2ccc(Br)cc21)/N=c1\\[nH]nc(C2CCCO2)s1 (stereo not drawn)", "cytotoxicity at 70.5 h [%]": -14.5}
{"Compound": "Cc1nnc(-c2cccc(C#N)c2)n1C1CCCN(C(C)C)C1=O (stereo not drawn)", "cytotoxicity at 70.5 h [%]": -9.5}
{"Compound": "Cc1oc(-c2ccsc2)nc1CNC(C)Cn1cccn1 (stereo not drawn)", "cytotoxicity at 70.5 h [%]": 11.6}
{"Compound": "Fc1ccc2[nH]c(C3CCCN3Cc3c[nH]cn3)nc2c1 (stereo not drawn)", "cytotoxicity at 70.5 h [%]": 28.4}

Fill in cytotoxicity at 70.5 h for each of the 5 compounds listed.
1. CN(Cc1ccccc1)CC1(O)CCCN(CC(C)(C)C)C1=O (stereo not drawn)
2. CN(C)S(=O)(=O)N1C[C@H]2CCC[C@@]2(COc2cccnc2)C1
3. CCc1c(C)nc2ccccc2c1N1CCC(NC(C)=O)CC1
4. CCC(CO)N(Cc1ccncc1)Cc1c[nH]nc1-c1ccc(F)cc1 (stereo not drawn)
5. CS(=O)(=O)Cc1nc(CN2CCOc3ccccc3C2)cs1

[-3.59, -5.8, -6.65, -7.22, -6.97]

Each compound below has a recorded value; state its cytotoxicity at 70.5 h.
1. Cc1cc2[nH]c(=O)oc2cc1S(=O)(=O)N1CCC(N2CCCC2=O)CC1
2. CC(=O)c1ccc(C(=O)Nc2ccnc(N(C)C)n2)cc1
3. O=C(CCSC1CCc2ccccc2NC1=O)NCCCO (stereo not drawn)
4. CO[C@H]1CCN(C(=O)c2cc(C)on2)[C@H]1Cc1ccncc1
5. CCC1CN(CCCNS(C)(=O)=O)c2ccccc2O1 (stereo not drawn)
6. CC(C)N(Cc1cccnc1)C(=O)CNc1ccc(C#N)cc1

1. -9.07
2. 6.64
3. -12.2
4. -7.23
5. -4.06
6. -12.5

Take each entry in turn and give its cytotoxicity at 70.5 h.
1. Cc1ccc(-c2ncc(C(=O)N3CCC[C@H](N)C3)c(O)n2)cc1
2. CC(C)N(Cc1ccccn1)C(=O)CN(C)C(=O)c1cccs1
3. COCCNC(=O)[C@H]1C[C@@H]2CCN(c3ccccc3)C[C@H]2O1

[-6.29, -22.7, -9.93]

State recorded cytotoxicity at 70.5 h for all listed compounds.
1. O=C(Nc1nc2c(s1)CNCC2)C1CC1
2. CCn1ncc2c1NC(=O)CC2c1cnc(NCc2ccccc2)nc1 (stereo not drawn)

1: 26.7; 2: 14.7

----------
test: Human HepG2 cell viability assay in 384 well format; format: toxicity, cell-based; set-up: dose 125 nL, time 70.5 hour; concentration not given beside the values; conditions: HepG2 cells, read-out: Inhibition
Answer each item with its documented cytotoxicity at 70.5 h.
Numbers only, in %.

// solved cases for cytotoxicity at 70.5 h follow
{"Compound": "CN(C)Cc1nnc(C(=O)N(C)Cc2ccc(F)cc2)o1", "cytotoxicity at 70.5 h (%)": -4.17}
{"Compound": "CNC(=O)C1(C)CCCN1Cc1cnn(C)c1C (configuration not stated)", "cytotoxicity at 70.5 h (%)": -8.11}
{"Compound": "COCCOCCC(=O)N1CCC(c2ccccc2C)C1 (configuration not stated)", "cytotoxicity at 70.5 h (%)": -4.21}
{"Compound": "Cc1cc(C)n(-c2ccc(C(=O)NCC(CO)Cc3ccco3)cc2)n1 (configuration not stated)", "cytotoxicity at 70.5 h (%)": -7.33}
{"Compound": "CC(C)[C@@H]1CN(C(=O)NCCc2ccccc2)C[C@H]1NS(=O)(=O)N(C)C", "cytotoxicity at 70.5 h (%)": 2.29}

# return cytotoxicity at 70.5 h for each item in the list
1. CNc1ncc2c(n1)CN(CCc1ccc(Cl)cc1)C2=O
2. O=C(c1cc(-c2cn[nH]c2)nc2ccc(F)cc12)N1CCSCC1
3. COC(=O)c1sccc1S(=O)(=O)NCCC(O)c1ccco1 (configuration not stated)
4. CN(C)C(=O)NC1COC2(CCN(Cc3nccn3C)CC2)C1 (configuration not stated)
5. Cc1cc(CN2CCN(CC(O)C(C)(C)C)CC2)no1 (configuration not stated)
6. CN(C)c1ncc(-c2c(-c3ccccc3)ncn2C(CO)C(=O)O)cn1 (configuration not stated)

-5.88
-5.34
-8.35
2.06
9.4
-10.8

List reported cytotoxicity at 70.5 h for each of these compounds:
1. COc1cccc(CC(=O)N2CC[C@H]3[C@@H]2CCC(=O)N3C)c1
2. Cc1cnc(C(=O)N2C[C@H]3CN(Cc4cccc(F)c4)C(=O)[C@H]3C2)cn1
3. CN(C)c1ccc(-c2cc(C(=O)O)cc(S(=O)(=O)NC3CC3)c2)cc1
4. Cc1cc(Cl)ccc1NCc1ccc(C(=O)N(C)C)[nH]1
5. CC(C(=O)N1CCCCCC1)N1CCN(Cc2nccn2C)CC1 (configuration not stated)

[4.41, 10.5, -12.9, -4.01, -4.84]

# batch: return cytotoxicity at 70.5 h for each of the 3 compounds below
1. CSCCNC(=O)C1CCC(=O)N(C2CCCC2)C1 (configuration not stated)
2. COCCN1C[C@@H]2CN(Cc3ccoc3)CCC[C@]2(C(=O)O)C1
3. CCc1cnc(CN2CCC(N(Cc3noc(CC)n3)C(C)=O)C2)o1 (configuration not stated)

1. 0.162
2. -1.11
3. -9.22

Record cytotoxicity at 70.5 h for all entries; do not skip any.
1. CCN(CC1CN(Cc2ncc(C)o2)CCO1)c1cccnn1 (configuration not stated)
2. COc1ccc(CN2C[C@@H]3COC[C@@H](N4CCN(C)CC4)[C@@H]3C2)cc1
3. Cc1nc(C)c(CC(=O)NCc2cccnc2OC2CCCC2)c(=O)[nH]1
4. CCC(C)(CNC(=O)Nc1nncs1)N1CCOCC1 (configuration not stated)
5. COc1cc(CNc2cnn(C)c2)cc2c1OCCO2
6. COCC(=O)N1CCN(Cc2cc(F)cc(Br)c2)CC1
7. CCOc1ncccc1NC(=O)N1CCCN(C(=O)OC)CC1

1: -2.43; 2: 0.325; 3: -4.62; 4: -13.4; 5: -4.12; 6: -6.59; 7: -0.675

Give cytotoxicity at 70.5 h for each listed item.
1. Cc1ccccc1CSc1ncc(Br)c(C(=O)O)n1
2. CS(=O)(=O)N1CCOCC12CCN(Cc1ccoc1)CC2
3. COCc1cc(CNc2cnn(CC(F)F)c2)ccc1OC

[-5.71, -5.63, 1.97]

Provide cytotoxicity at 70.5 h values for the following items, in order.
1. Cc1nc(CN(C)C(=O)NC(C)c2ccc3c(c2)OCCO3)cs1 (configuration not stated)
2. CCOc1cccc(CNc2cccc(C(=O)OC)c2)c1O
3. CN(C)Cc1cc(=O)n2c(n1)CN(C(=O)Cc1ccsc1)CCC2
4. CC(C)NC(=O)C1CCc2nnc(CNC(=O)c3cccnc3)n21 (configuration not stated)
5. O=C1[C@H]2CC[C@H](CN(C3CCOCC3)C2)N1Cc1cscn1
6. COCCN(Cc1coc(-c2ccc(OC)cc2)n1)C1CC1
7. CC(C)N1CCC[C@H]1C(=O)NCC1CCN(c2cnn(C)c(=O)c2)CC1

[36.4, -19.3, -12.5, -2, 23.4, -1.17, -8.1]

Okay, here is my list. What is cytotoxicity at 70.5 h for each of these?
1. c1cnc(N2CCO[C@@H]3CN(Cc4ccoc4)C[C@@H]3C2)nc1
2. COCCC(=O)N(C)Cc1nc(C(F)(F)F)cs1

4.32
-1.8

// batch mode: one cytotoxicity at 70.5 h value per listed entry
1. O=C1CCC2(CCCN(c3ncnc4[nH]cnc34)C2)CN1CCCO (configuration not stated)
2. CC(=O)Nc1nc(CN2CCCC2Cn2cccn2)cs1 (configuration not stated)
3. CCN(CC)C(=O)c1nnsc1-c1ccc(C)cc1

1: -14.3; 2: -6.85; 3: -8.98
